molecular target: SIRT1 (Homo sapiens); assay: Mass spectrometry based SIRT1 deacetylation assay (activation); type: biochemical; conditions: 10 nM SIRT1, 0.5 μM peptide substrate, 120 μM βNAD+, 25 min at 25° C.
Sequence (Q96EB6 whole entry): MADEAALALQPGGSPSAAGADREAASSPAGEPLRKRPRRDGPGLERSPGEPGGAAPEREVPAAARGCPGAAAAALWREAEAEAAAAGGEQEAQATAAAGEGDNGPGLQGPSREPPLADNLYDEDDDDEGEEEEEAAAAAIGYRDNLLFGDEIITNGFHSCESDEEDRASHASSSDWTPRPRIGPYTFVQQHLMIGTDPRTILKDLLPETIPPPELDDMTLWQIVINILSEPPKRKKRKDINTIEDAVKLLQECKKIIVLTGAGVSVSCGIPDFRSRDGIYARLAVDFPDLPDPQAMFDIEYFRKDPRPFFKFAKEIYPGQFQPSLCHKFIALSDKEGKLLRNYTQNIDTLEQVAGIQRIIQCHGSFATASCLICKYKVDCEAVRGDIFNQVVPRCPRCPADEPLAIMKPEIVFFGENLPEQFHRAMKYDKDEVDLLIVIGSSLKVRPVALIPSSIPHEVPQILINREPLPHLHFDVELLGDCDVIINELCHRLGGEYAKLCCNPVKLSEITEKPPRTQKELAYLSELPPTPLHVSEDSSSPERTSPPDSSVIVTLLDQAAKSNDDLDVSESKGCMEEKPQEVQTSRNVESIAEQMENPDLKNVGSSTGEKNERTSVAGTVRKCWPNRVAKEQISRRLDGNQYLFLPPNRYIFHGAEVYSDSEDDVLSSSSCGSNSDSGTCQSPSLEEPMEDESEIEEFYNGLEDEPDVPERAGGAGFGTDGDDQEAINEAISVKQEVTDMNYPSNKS
OUTCOME MEASURE: EC1.5 (concentration of test compound that results in 150% activation of SIRT1)

Example cases with answers are listed next.
- ENTRY SMILES: "O=C(Nc1cccc(CN2CCOCC2)n1)c1cccc2ccc(-c3cccnc3)nc12"
  MEASURED VALUE: "A (EC1.5<1.0 uM)"
- ENTRY SMILES: "O=C(Nc1ccc(CN2CCOCC2)nc1)c1cccc2ccc(-c3cccc(C(F)F)c3)nc12"
  MEASURED VALUE: "A (EC1.5<1.0 uM)"
- ENTRY SMILES: "Cn1ccc(NC(=O)c2cccc3ccc(-c4cccc(C(F)(F)F)c4)nc23)n1"
  MEASURED VALUE: "A (EC1.5<1.0 uM)"
- ENTRY SMILES: "Cc1cncc(-c2ccc3cccc(C(=O)Nc4nccs4)c3n2)c1"
  MEASURED VALUE: "C (EC1.5>25 uM)"
- ENTRY SMILES: "O=C(Nc1ccccn1)c1cccc2ccc(-c3cccc(N4CCOCC4)c3)nc12"
  MEASURED VALUE: "A (EC1.5<1.0 uM)"
- ENTRY SMILES: "CC(C)(C)c1nnc(NC(=O)c2cccc3ccc(-c4cccc(C(F)(F)F)c4)nc23)s1"
  MEASURED VALUE: "A (EC1.5<1.0 uM)"
- ENTRY SMILES: "Cc1cnc(NC(=O)c2cccc3ccc(-c4cccc(C(F)(F)F)c4)nc23)s1"
  MEASURED VALUE: "A (EC1.5<1.0 uM)"

Query compound follows.
// fetch EC1.5 (concentration of test compound that results in 150% activation of SIRT1) given entry FC(F)(F)c1cccc(-c2ccc3cccc(NCc4ccccn4)c3n2)c1 C (EC1.5>25 uM)
